- System: human telomeric sequence d[T2G3(T2AG3)3A] (hTel) quadruplex DNA
- test description: UV melting of hTel quadruplex DNA (G-quadruplex stabilization)
- Format: binding
- condition notes: first-derivative UV melting at 295 nm; hTel 5 µM strand, drug 20 µM; 10 mM potassium phosphate pH 7.5, total K+ 150 mM; no drug: 64.6
Ttran, hTel quadruplex DNA values, listed per item
Give the number; °C is assumed, so skip it.

smiles code	study system	Ttran, hTel quadruplex DNA, °C
CN(C)Cc1cc2cc(c1)CNC(=O)c1coc(n1)-c1coc(n1)-c1cccc(n1)-c1nc(co1)-c1nc(co1)C(=O)NC2	human telomeric sequence d[T2G3(T2AG3)3A] (hTel) quadruplex DNA	64.7
CN(C)c1cc2cc(c1)CNC(=O)c1coc(n1)-c1coc(n1)-c1cccc(n1)-c1nc(co1)-c1nc(co1)C(=O)NC2	human telomeric sequence d[T2G3(T2AG3)3A] (hTel) quadruplex DNA	80.1
CN(C)CCCc1ccc2cc1CNC(=O)c1coc(n1)-c1coc(n1)-c1cccc(n1)-c1nc(co1)-c1nc(co1)C(=O)NC2	human telomeric sequence d[T2G3(T2AG3)3A] (hTel) quadruplex DNA	71.7
CN(C)c1ccc2cc1CNC(=O)c1coc(n1)-c1coc(n1)-c1cccc(n1)-c1nc(co1)-c1nc(co1)C(=O)NC2	human telomeric sequence d[T2G3(T2AG3)3A] (hTel) quadruplex DNA	85.1
CN(C)CCc1ccc2cc1CNC(=O)c1coc(n1)-c1coc(n1)-c1cccc(n1)-c1nc(co1)-c1nc(co1)C(=O)NC2	human telomeric sequence d[T2G3(T2AG3)3A] (hTel) quadruplex DNA	89.2
CN(C)CCc1oc2nc1C(=O)NCc1cccc(c1)CNC(=O)c1coc(n1)-c1coc(n1)-c1cccc(n1)-c1nc-2co1	human telomeric sequence d[T2G3(T2AG3)3A] (hTel) quadruplex DNA	69.2
CN(C)CCCc1cc2cc(c1)CNC(=O)c1coc(n1)-c1coc(n1)-c1cccc(n1)-c1nc(co1)-c1nc(co1)C(=O)NC2	human telomeric sequence d[T2G3(T2AG3)3A] (hTel) quadruplex DNA	93.2

The record that follows has no Ttran, hTel quadruplex DNA shown yet.
stdin: For the molecule `CN(C)CCc1oc2nc1C(=O)NCc1cccc(c1)CNC(=O)c1nc(oc1CCN(C)C)-c1coc(n1)-c1cccc(n1)-c1nc-2co1` , what Ttran, hTel quadruplex DNA is on record?
stdout: 66.2

====

- Tested on: RPMI 8402 cells
- test description: MTT cytotoxicity assay, RPMI 8402
- Type: cell-based, human
- condition notes: continuous exposure for four days, means of at least two determinations ± standard deviation
measured property: IC50 (nM)
Report as a plain number; the unit nM is understood.

stdin: Record request: IC50 value, item `CN(C)Cc1cc2cc(c1)CNC(=O)c1coc(n1)-c1coc(n1)-c1cccc(n1)-c1nc(co1)-c1nc(co1)C(=O)NC2`
stdout: 7000

stdin: Tell me the measured IC50 of `CN(C)CCCc1ccc2cc1CNC(=O)c1coc(n1)-c1coc(n1)-c1cccc(n1)-c1nc(co1)-c1nc(co1)C(=O)NC2` , please.
stdout: 400

stdin: I have this compound here, `CN(C)CCc1ccc2cc1CNC(=O)c1coc(n1)-c1coc(n1)-c1cccc(n1)-c1nc(co1)-c1nc(co1)C(=O)NC2` , and I need its recorded IC50.
stdout: 500
